# ASSAY_REMARKS: Tumor homogenate activation efficiency, non-small cell lung cancer tissue (Examples 28, 37)
# Type: in vitro ADME
# CONDITION: pH 5.0, 37° C., 2 h; Table 10
# Procedure: Buffer preparation: 50 mM PH buffer (MES), 250 mM NaCl, pH adjusted to 5.0 with 0.5 M of sodium hydroxide. The polypeptide conjugate was prepared into a 1 mg/ml solution with pH 5.0 buffer, 100 μg of tumor tissue homogenate was added, (the tumor tissue homogenate was the homogenate of tumor tissues prepared with a Jingxin F6/10 handheld homogenizer), and the solution was placed at 37° C. for 2 h. […]
Where a SMILES comes first, the peptide text is derived from it. The star is where a group is joined. Belotecan = CC[C@@]1(O)C(=O)OCc2c1cc1n(c2=O)Cc2c-1nc1ccccc1c2CCN(C(C)C)*; X2 = CCCCN(CCc1c2c(nc3ccccc13)-c1cc3c(c(=O)n1C2)COC(=O)[C@]3(O)CC)*; X8 = CC[C@@]1(O)C(=O)OCc2c1cc1n(c2=O)Cc2c-1nc1ccccc1c2CCN(C1CCCC1)*; X3 = CC[C@@]1(O)C(=O)OCc2c1cc1n(c2=O)Cc2c-1nc1ccccc1c2CCN(C1CC1)*; X7 = CC[C@@]1(O)C(=O)OCc2c1cc1n(c2=O)Cc2c-1nc1ccccc1c2CCN(C)*; Propanoyl(3-maleimido) = O=C1C=CC(=O)N1CCC(=O)*; PEG6 = NCCOCCOCCOCCOCCOCCOCCC(=O)O
RECORDED_ENDPOINT: Percentage of release efficiency (%) Non-small cell lung cancer tissue (A549)

MOLECULE	RECORDED_MEASUREMENT
CC[C@@]1(O)C(=O)OCc2c1cc1n(c2=O)Cc2c-1nc1ccccc1c2CCN(C)C(=O)[C@H](CC(C)C)NC(=O)[C@H](CC(N)=O)NC(=O)[C@H](C)NC(=O)[C@H](C)NC(=O)CCOCCOCCOCCOCCOCCOCCNC(=O)CCN1C(=O)C=CC1=O [MI-6PEG-AANL-D1] ({Propanoyl(3-maleimido)-PEG6}-AANL-X7)	69.5
CCCCN(CCc1c2c(nc3ccccc13)-c1cc3c(c(=O)n1C2)COC(=O)[C@]3(O)CC)C(=O)[C@H](CC(C)C)NC(=O)[C@H](CC(N)=O)NC(=O)[C@H](C)NC(=O)[C@H](C)NC(=O)CCOCCOCCOCCOCCOCCOCCNC(=O)CCN1C(=O)C=CC1=O [MI-6PEG-AANL-D4] ({Propanoyl(3-maleimido)-PEG6}-AANL-X2)	77.7
CC[C@@]1(O)C(=O)OCc2c1cc1n(c2=O)Cc2c-1nc1ccccc1c2CCN(C(=O)[C@H](CC(C)C)NC(=O)[C@H](CC(N)=O)NC(=O)[C@H](C)NC(=O)[C@H](C)NC(=O)CCOCCOCCOCCOCCOCCOCCNC(=O)CCN1C(=O)C=CC1=O)C1CCCC1 [MI-6PEG-AANL-D8] ({Propanoyl(3-maleimido)-PEG6}-AANL-X8)	68.4
CC[C@@]1(O)C(=O)OCc2c1cc1n(c2=O)Cc2c-1nc1ccccc1c2CCN(C(=O)[C@H](CC(C)C)NC(=O)[C@H](CC(N)=O)NC(=O)[C@H](C)NC(=O)[C@H](C)NC(=O)CCOCCOCCOCCOCCOCCOCCNC(=O)CCN1C(=O)C=CC1=O)C(C)C [MI-6PEG-AANL-Belotecan] ({Propanoyl(3-maleimido)-PEG6}-AANL-Belotecan)	76.5
CC[C@@]1(O)C(=O)OCc2c1cc1n(c2=O)Cc2c-1nc1ccccc1c2CCN(C)C(=O)[C@H](CC(C)C)NC(=O)[C@H](Cc1ccccc1)NC(=O)CNC(=O)CNC(=O)CCOCCOCCOCCOCCOCCOCCNC(=O)CCN1C(=O)C=CC1=O [MI-6PEG-GGFL-D1] ({Propanoyl(3-maleimido)-PEG6}-GGFL-X7)	82.5
CC[C@@]1(O)C(=O)OCc2c1cc1n(c2=O)Cc2c-1nc1ccccc1c2CCN(C(=O)[C@H](CC(C)C)NC(=O)[C@H](CC(N)=O)NC(=O)[C@H](C)NC(=O)[C@H](C)NC(=O)CCOCCOCCOCCOCCOCCOCCNC(=O)CCN1C(=O)C=CC1=O)C1CC1 [MI-6PEG-AANL-D6] ({Propanoyl(3-maleimido)-PEG6}-AANL-X3)	66.1

Origin of measurements: patent US20250235545A1
